Recorded measurements of melting point, one per entry
parameter-measured: melting point

input_smiles=COC(=O)c1nc(CN(C)C)n(-c2ccc(Cl)cc2C(=O)c2ccccc2Cl)n1 endpoint_value="131 to 134 °C"
input_smiles=Cc1ccc(OC2=C(Oc3ccc(C)cc3)C(F)(F)C(F)(F)C2(F)F)cc1 endpoint_value="46 to 48 °C"
input_smiles=CN1CCN(c2nc3ccccc3nc2Cc2ccccc2)CC1 endpoint_value="89 to 90 °C"

----------
parameter-measured: melting point

molecule=CCOc1ccc(-n2c(NCc3ccc(Br)cc3)nc3ccc(Cl)cc32)cc1 parameter_measured="melting point" endpoint_value="140 to 141 °C"
molecule="CC(C)(C)C(O)(Cn1cncn1)C(Br)=C(Cl)Br (stereo not given)" parameter_measured="melting point" endpoint_value="78 to 81 °C"
molecule=COc1ccc(CCN2CCC(=C3c4ccccc4CCn4ncnc43)CC2)cc1 parameter_measured="melting point" endpoint_value="129 °C"
molecule=Cc1c(OCCCSc2ccc3ncc([N+](=O)[O-])n3n2)ccnc1CO parameter_measured="melting point" endpoint_value="135 to 136 °C"
molecule=C#CCOc1cc(F)cc(F)c1-n1c(=O)cc(C(F)(F)F)n(C)c1=O parameter_measured="melting point" endpoint_value="159 to 162 °C"
molecule=O=c1ccc2ccc(OCCCCN3CCCN(c4cccc(Cl)c4Cl)CC3)cc2[nH]1 parameter_measured="melting point" endpoint_value="55 to 57 °C"
molecule="CC(=O)OC1C(N2CCCCC2)CC2C3CCC4CCC(N5CCCCC5)CC4(C)C3CCC21C (stereo not given)" parameter_measured="melting point" endpoint_value="156 to 161 °C"
molecule=CCCc1ccc(OC)c(-c2csc(NC(=O)NN3CCN(CCCN4CCOCC4)CC3)n2)c1 parameter_measured="melting point" endpoint_value="229 °C"
molecule="CNc1ccc(C23CC2C(=O)N(C)C3=O)cc1 (stereo not given)" parameter_measured="melting point" endpoint_value="128 to 129 °C"
molecule=CCCCOCCOc1ccc(-c2ccc(N3CCCC3)c(C(C)=O)c2)cc1 parameter_measured="melting point" endpoint_value="87 to 88 °C"
